// IC50 lookup, one value per entry
Measured Target: Pim-3 (Homo sapiens)
Construct: His6-labelled recombinant full-length human Pim-1, Pim-2 or Pim-3 protein; His6; made in house
Assay Method Text: TR-FRET assay, Pim-3 kinase (phosphorylation of Bad Ser112)
Type: biochemical
Test Conditions: TR-FRET; ATP 40 μM; read-out: IC50 Pim3

                           molecular_string  assay_result
0  CC(=O)N1CCN(c2cccc(-c3cnc4[nH]c5cnc(-c6cccnc6)cc5c4c3)c2)CC1   1 to 100 nM

Ask: GET IC50 where system = Pim-3 (Homo sapiens) and item = Fc1cnc2[nH]c3cnc(-c4cccnc4)cc3c2c1C1CC1
Result: 1 to 100 nM
